Biological target: recombinant eIF4E (Homo sapiens (Human), UniProt P06730)
Sequence (P06730 whole entry): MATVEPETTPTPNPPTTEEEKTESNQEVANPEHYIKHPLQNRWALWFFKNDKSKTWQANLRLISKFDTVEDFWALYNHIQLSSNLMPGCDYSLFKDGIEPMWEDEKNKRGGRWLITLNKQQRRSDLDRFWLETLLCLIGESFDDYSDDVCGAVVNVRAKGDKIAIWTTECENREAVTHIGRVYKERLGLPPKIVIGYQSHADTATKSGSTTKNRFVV
Experiment: Fluorescence polarization competition assay for eIF4E binding potency
Conditions: fluorescence polarization competition, 75 nM recombinant eIF4E, 20 nM EDA-m7GDP-ATTO-550; IC50 class; read-out: elF4E FP
Method: Compounds were screened for eIF4E binding potency using a fluorescence polarization competition assay. All binding reactions were performed in fluorescence polarization buffer (FPB) containing 20 mM Tris pH 7.5, 100 mM NaCl, 1 mM DTT, and 0.02% Tween-20. Final binding reactions contained 75 nM recombinant eIF4E (Beryllium, custom order), 20 nM EDA-m^7GDP-ATTO-550 (Jena Bioscience, NU-827-550) and varying concentrations of the inhibitory compound of interest. […]
pIC50: −log10 of the molar value.
PROPERTY MEASURED: pIC50

- Cc1cc(-c2cc(Cl)ccc2OCCc2c(C)n(C)c3cc(C(F)(F)F)cc(C#N)c3c2=O)c2scc(C(=O)O)c2n1: > 7.30
- Cc1nc2cc(C(F)(F)F)cc(C#N)c2c(=O)n1CCOc1ccc(C#N)nc1-c1ccnc2c(C(=O)O)csc12: 6.00 to 7.30
- Cc1nc2cc(CN(C)C)c(OC(F)F)c(C#N)c2c(=O)n1CCOc1ccc(Cl)cc1-c1cccc(C(=O)O)c1: > 7.30
- Cc1nc2cc(C(F)(F)F)cc(C#N)c2c(=O)n1CCOc1ccc(Cl)cc1-c1cc(C(F)F)nc2c(C(=O)O)csc12: > 7.30
- Cc1cc(-c2cc(Cl)ccc2OCCn2c(C)nc3cc(C(F)(F)F)c(-c4ccccn4)c(C#N)c3c2=O)c2scc(C(=O)O)c2n1: > 7.30

## Task Data request, read-out pIC50, for "Cc1nc2cc(C(F)(F)F)cc(C#N)c2c(=O)n1CCOc1ccc(Cl)cc1-c1cncc(-c2nn[nH]n2)c1"
## Result 6.00 to 7.30

## Task Try this compound too: "Cc1nc2cc(OC(F)F)c(C(F)(F)F)c(C#N)c2c(=O)n1CCOc1ccc(Cl)cc1-c1ccnc2c(C(=O)O)csc12"
## Result > 7.30

###

Molecular target: recombinant eIF4E (Homo sapiens (Human), UniProt P06730)
Assay: Fluorescence polarization competition assay for eIF4E binding potency
Details: fluorescence polarization competition, 75 nM recombinant eIF4E, 20 nM EDA-m7GDP-ATTO-550; IC50 class; read-out: elF4E FP
PROPERTY MEASURED: IC50

Worked set:
• Cc1cc(-c2cc(Cl)ccc2OCCn2c(C)nc3cc(C(F)(F)F)c(-c4cnccc4F)c(C#N)c3c2=O)c2scc(C(=O)O)c2n1 [compound 343] = < 50 nM
• Cc1nc2cc(C(F)(F)F)c(CN(C)C)c(F)c2c(=O)n1CCOc1ccc(Cl)cc1-c1ccnc2c(C(=O)O)csc12 [compound 621] = 50 to 1000 nM
• Cc1nc2cc(C(F)F)c(OC(F)(F)F)c(C#N)c2c(=O)n1CCOc1ccc(Cl)cc1-c1ccnc2c(C(=O)O)csc12 [compound 551] = < 50 nM
• Cc1cc(-c2cc(Cl)ccc2OCCn2c(C)nc3cc(S(C)(=O)=O)c(N4CCN(C)CC4)c(C#N)c3c2=O)c2sc(C)c(C(=O)O)c2n1 [compound 1150] = < 50 nM
• Cc1cc(-c2cc(Cl)ccc2OCCn2c(C)nc3cc(C(F)(F)F)c(N4CCN(C)CC4)c(C#N)c3c2=O)cc(C(=O)O)n1 [compound 1222] = < 50 nM

Then there is this molecule:
## Task Data request, read-out IC50, for Cc1cc(-c2cc(Cl)ccc2OCCn2c(C)nc3cnc(-c4cccc(C(F)(F)F)c4)c(C#N)c3c2=O)c2scc(C(=O)O)c2n1 [compound 951]
## Result < 50 nM
